ASSAY_TARGET: T1, human CD33 extracellular domain (human, UniProt P20138 18-259)
T1 construct: soluble monomeric ECD; also called human CD33 ECD; hCD33
ASSAY_NAME: SPR, Fab captured, 37C;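 also: fabs captured on an anti-Fab surface, soluble monomeric CD33 ECD flowed over at several concentrations, double-referenced curves fit to a 1:1 binding model, KD taken as koff/kon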
METRIC_NAME: kon (M⁻¹ s⁻¹)
Answers are plain numbers, in M⁻¹ s⁻¹.

Answered examples (3):
ADI-11819 Fab (Fab, V domains shown, Fab fragment; also called Ab8) VH: EVQLVESGGGLVKPGGSLRLSCAASGFTFSSYAMSWVRQAPGKGLEWVSSISSSSEGIYYADSVKGRFTISRDNAKNSLYLQMNSLRAEDTAVYYCAREGGPYYDSSGYFVYYGMDVWGQGTTVTVSS VL: DIQMTQSPSTLSASVGDRVTITCRASNSISSWLAWYQQKPGKAPKLLIYEASSTKSGVPSRFSGSGSGTEFTLTISSLQPDDFATYYCQQYDDLPTFGGGTKVEIK	2.84e+06
ADI-11839 Fab (Fab, V domains shown, Fab fragment; also called Ab28) VH: QVQLVQSGAEVKKPGASVKVSCKASGYTFSNYYMHWVRQAPGQGLEWMGWINPFSGGTRYAQKFQGRVTMTRDTSTSTVYMELSSLRSEDTAVYYCARDVGSSAYYYMDVWGKGTTVTVSS VL: DIQMTQSPSSVSASVGDRVTITCEASKGISSWLAWYQQKPGKAPKLLIYAASDLQSGVPSRFSGSGSGTDFTLTISSLQPEDFATYYCQQAFLFPPTFGGGTKVEIK	874000
ADI-10161 Fab (Fab, V domains shown, Fab fragment; also called Ab16) VH: EVQLVESGGGLVQPGGSLRLSCAASGFTFSSYWMSWVRQAPGKGLEWVANINQDGSEKYYVDSVKGRFTISRDNAKNSLYLQMNSLRAEDTAVYYCAREGGDSWYHAFDIWGQGTMVTVSS VL: DIQMTQSPSSVSASVGDRVTITCRASQGISSWLAWYQQKPGKAPKLLIYAASNLQSGVPSRFSGSGSGTDFTLTISSLQPEDFATYYCQQKLSLPLTFGGGTKVEIK	574000

We now examine a further binder.
kon for ADI-11776 Fab (Fab, V domains shown, Fab fragment; also called Ab3; H76) VH: EVQLLESGGGLVQPGGSLRLSCAASGFTFSKYTMSWVRQAPGKGLEWVSAIVGSGESTYFADSVKGRFTISRDNSKNTLYLQMNSLRAEDTAVYYCAREGGPYYDSSGYFVYYGMDVWGQGTTVTVSS VL: DIQMTQSPSTLSASVGDRVTITCRASQSISSWLAWYQQKPGKAPKLLIYKASSLESGVPSRFSGSGSGTEFTLTISSLQPDDFATYYCQQYDDLPTFGGGTKVEIK is 1.6e+06
